Source of measurements: patent US20210395344A1

target: T1, COVID S1 RBM Fc fusion (Antigen 2) (SARS-CoV-2, UniProt P0DTC2 437-508); experiment: phage ELISA
T1 construct: domain: RBM
Below is a list of entries, each paired with its recorded specificity ELISA, percent binding relative to Acro S1 value.
measured parameter: specificity ELISA, percent binding relative to Acro S1 (%)

| binder | val |
| --- | --- |
| SARS-CoV-2 variant 1-35 (antibody, V domains shown) VH: EVQLLESGGGLVQPGGSLRLSCAASGFTFSNYAMSWVRQAPGKGLEWVSDISGSGGSTYYADSVKGRFTISRDNSKNTLYLQMNSLRAEDTAVYYCVKGTIPIFGVIRSAFDYWGQGTLVTVSS VL: QSALTQPASVSGSPGQSITISCTGTSSDVGSYSLVSWYQQHPGKAPKLMIYEGTKRPSGVSNRFSGSKSGNTASLTISGLQAEDEADYYCCSYAGSYSYVVFGGGTKLTVL | 7.3 |
| SARS-CoV-2 variant 1-33 (antibody, V domains shown) VH: EVQLLESGGGLVQPGGSLRLSCAASGFTFSSYAMIWVRQAPGKGLEWVSAISGSGGSTFYADSVKGRFTISRDNSKNTLYLQMNSLRAEDTAVYYCTRPPYGDYGDYWGQGTLVTVSS VL: QSALTQPASVSGSPGQSITISCTGTSSDVGSYNLLSWYQQHPGKAPKLMIYEASKRPSGVSNRFSGSKSGNTASLTISGLQAEDEADYYCCSYAGSRTPVVFGGGTKLTVL | 14.6 |
| SARS-CoV-2 variant 1-28 (antibody, V domains shown) VH: EVQLLESGGGLVQPGGSLRLSCAASGFTFSSYGMSWVRQAPGKGLEWVSAISGSGGGTYYADSVKGRFTISRDNSKNTLYLQMNSLRAEDTAVYYCASSSSWQFDYWGQGTLVTVSS VL: QSALTQPASVSGSPGQSITISCTGTSSGVGSYNLVSWYQQHPGKAPKLMIYEGSQRPSGVSNRFSGSKSGNTASLTISGLQAEDEADYYCCSYAGSSTHYVFGGGTKLTVL | 124 |
